System: Haemophilus influenzae
Test: Antibacterial activity against Haemophilus influenzae ATCC 49247
Type: functional
observable: MIC (µg/mL)
Supply the numeric figure in µg/mL, leaving out any unit text.

input: Please provide the recorded MIC for `CC[C@H]1OC(=O)CC(=O)[C@H](C)[C@@H](O[C@@H]2O[C@@H](C)[C@@H](O)[C@@H](N(C)C)[C@H]2O)[C@H]2C[C@@H](O)[C@](C)(C2)C(=O)/C=C/C(C)=C/[C@@H]1CO[C@@H]1O[C@@H](C)[C@@H](O)[C@@H](OC)[C@@H]1OC` , tested on Haemophilus influenzae.
output: 128

----------
Tested on: Staphylococcus aureus
Test: Antibacterial activity against Staphylococcus aureus PSCB-0330
Type: functional
Below is a list of entries, each paired with its recorded MIC value.

compound	MIC
CC[C@H]1O/C(O)=C/C(=O)[C@H](C)[C@@H](OC2OC(C)C(O)C(N(C)C)C2O)[C@@H](CC=O)C[C@@H](C)C(=O)/C=C/C(C)=C/[C@@H]1COC1OC(C)C(O)C(OC)C1OC (some centres not stated)	> 128 µg/mL

Now let's try a different one.
input: Looking for the measured MIC of CC[C@H]1OC(=O)CC2(O)C(C=O)[C@@H](C[C@@H](C)C(=O)/C=C/C(C)=C/[C@@H]1CO[C@@H]1O[C@@H](C)[C@@H](O)[C@@H](OC)[C@@H]1OC)[C@H](O[C@@H]1O[C@@H](C)[C@@H](O)[C@@H](N(C)C)[C@H]1O)[C@H]2C (some centres not stated) , can you help?
output: > 128 µg/mL

----------
Tested on: Staphylococcus aureus
Assay: Antibacterial activity against Staphylococcus aureus PSCB-0330
Assay type: functional
observable: MIC

molecule	testedSystem	MIC
CC[C@H]1OC(=O)C[C@H](O)[C@H](C)[C@@H](OC2OC(C)C(O)C(N(C)C)C2O)[C@@H](C/C=C/C(=O)OC)C[C@@H](C)C(=O)/C=C/C(C)=C/[C@@H]1COC1OC(C)C(O)C(OC)C1OC (stereo partly specified)	Staphylococcus aureus	> 128 µg/mL

input: Looking for the measured MIC of `CC[C@H]1OC(=O)C[C@@H](O)[C@H](C)[C@@H](O[C@@H]2O[C@H](C)[C@@H](O[C@H]3C[C@@](C)(O)[C@@H](O)[C@H](C)O3)[C@H](N(C)C)[C@H]2O)[C@@H](CC=O)C[C@@H](C)C(=O)/C=C/C(C)=C/[C@@H]1CO[C@@H]1O[C@H](C)[C@@H](O)[C@@H](OC)[C@H]1OC` , can you help?
output: > 128 µg/mL

input: Try CC[C@H]1OC(=O)C[C@@H](O)[C@H](C)[C@@H](OC2OC(C)C(O)C(N(C)C)C2O)[C@@H](C/C=C/C(C)=O)C[C@@H](C)C(=O)/C=C/C(C)=C/[C@@H]1COC1OC(C)C(O)C(OC)C1OC (stereo partly specified) next.
output: 128 µg/mL

input: Try CC[C@H]1OC(=O)C[C@@H](OC(C)=O)[C@H](C)[C@@H](OC2OC(C)C(O)C(N(C)C)C2O)[C@@H](CC=O)C[C@@H](C)C(=O)/C=C/C(C)=C/[C@@H]1COC1OC(C)C(O)C(OC)C1OC (stereo partly specified) next.
output: > 128 µg/mL

input: Try CC[C@H]1OC(=O)C[C@@H](O)[C@H](C)[C@@H](OC2OC(C)C(O)C(=O)C2O)[C@@H](CC=O)C[C@@H](C)C(=O)/C=C/C(C)=C/[C@@H]1COC1OC(C)C(O)C(OC)C1OC (stereo partly specified) next.
output: > 128 µg/mL

input: Try CCOC(=O)/C=C/C[C@H]1C[C@@H](C)C(=O)/C=C/C(C)=C/[C@H](COC2OC(C)C(O)C(OC)C2OC)[C@@H](CC)OC(=O)C[C@@H](NN(C(=O)OCC)C(=O)OCC)[C@H](C)[C@H]1OC1OC(C)C(O)C(N(C)C)C1O (stereo partly specified) next.
output: 128 µg/mL
